target: Muscarinic acetylcholine receptor M3 (Cavia porcellus); experiment: Antagonist activity at muscarinic M3 receptor in guinea pig ilea assessed as inhibition of carbachol-induced contraction; conditions: read-out: pA2 (converted)
Sequence (Q8VH26 whole entry): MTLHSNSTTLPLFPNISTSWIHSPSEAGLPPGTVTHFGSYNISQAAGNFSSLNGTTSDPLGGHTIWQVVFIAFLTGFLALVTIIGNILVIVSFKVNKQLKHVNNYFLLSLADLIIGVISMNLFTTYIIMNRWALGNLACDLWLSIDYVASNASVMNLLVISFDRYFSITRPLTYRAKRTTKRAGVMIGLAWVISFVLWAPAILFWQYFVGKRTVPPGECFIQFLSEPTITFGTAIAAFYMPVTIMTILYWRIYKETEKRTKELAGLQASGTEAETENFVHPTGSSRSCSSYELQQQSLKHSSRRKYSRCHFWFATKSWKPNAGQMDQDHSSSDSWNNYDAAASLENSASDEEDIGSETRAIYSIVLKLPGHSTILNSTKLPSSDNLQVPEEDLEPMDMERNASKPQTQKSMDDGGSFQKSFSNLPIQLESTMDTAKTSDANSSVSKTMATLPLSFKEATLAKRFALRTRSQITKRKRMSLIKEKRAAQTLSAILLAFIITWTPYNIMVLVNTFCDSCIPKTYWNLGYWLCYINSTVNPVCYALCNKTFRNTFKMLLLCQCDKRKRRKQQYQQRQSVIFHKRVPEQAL
MEASURED_QUANTITY: Kb (nM)

• CC(=O)O[C@H]1C[C@@H]2C[C@@H](OC(=O)c3ccccc3Cl)C[C@@H]1N2C = 275
• CC(=O)O[C@H]1C[C@@H]2C[C@@H](OC(=O)c3ccccc3[N+](=O)[O-])C[C@@H]1N2C = 389
• CC(=O)O[C@H]1C[C@@H]2C[C@@H](OC(=O)Cc3ccccc3)C[C@@H]1N2C = 123
• CC(=O)O[C@H]1C[C@@H]2C[C@@H](OC(=O)c3ccccc3)C[C@@H]1N2C = 309
